target: PknB (Mycobacterium tuberculosis, UniProt P9WI81); construct: made in house; test: biochemical; parameters: species or system M. tuberculosis; details: 3 nM PknB, 6 uM GarA, 3 μM ATP, 30 min; competitive tight-binding fit; several symbols in a cell = repeat determinations; read-out: Ki Values
Sequence (P9WI81 whole entry): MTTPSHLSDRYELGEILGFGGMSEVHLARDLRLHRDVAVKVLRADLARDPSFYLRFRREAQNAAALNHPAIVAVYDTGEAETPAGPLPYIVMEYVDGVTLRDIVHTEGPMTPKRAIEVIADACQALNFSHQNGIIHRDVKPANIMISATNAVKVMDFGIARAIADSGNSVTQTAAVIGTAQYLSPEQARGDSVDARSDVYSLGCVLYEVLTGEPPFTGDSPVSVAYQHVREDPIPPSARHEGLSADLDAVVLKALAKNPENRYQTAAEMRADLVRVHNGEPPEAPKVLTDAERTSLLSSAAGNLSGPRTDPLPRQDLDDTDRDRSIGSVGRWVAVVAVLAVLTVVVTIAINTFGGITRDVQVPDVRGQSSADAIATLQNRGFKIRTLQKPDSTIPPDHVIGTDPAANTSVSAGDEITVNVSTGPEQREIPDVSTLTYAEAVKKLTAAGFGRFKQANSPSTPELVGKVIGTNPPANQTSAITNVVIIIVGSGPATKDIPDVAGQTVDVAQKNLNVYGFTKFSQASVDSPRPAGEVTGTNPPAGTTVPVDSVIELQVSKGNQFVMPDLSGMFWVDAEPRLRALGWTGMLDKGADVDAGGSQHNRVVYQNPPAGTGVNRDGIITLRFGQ
pKi: −log10 of the molar value.
endpoint: pKi

**Query** Enter reported pKi observed with PknB (Mycobacterium tuberculosis, UniProt P9WI81) for "CC(C)(C)NS(=O)(=O)C/C=C/c1nccc(Nc2cc(C3CC3)[nH]n2)n1"
**Result** 5.70 to 6.00

**Query** Next molecule up: "O=C(O)c1ccc(Nc2nccc(Nc3cc(C4CC4)n[nH]3)n2)cc1"
**Result** 6.30 to 7.00

**Query** Same lookup for "C#Cc1cnc(-c2ccc(S(=O)(=O)NC(C)(C)C)s2)nc1Nc1cc(C2CC2)n[nH]1" , please.
**Result** 7.30 to 8.00

**Query** Likewise for "NS(=O)(=O)c1ccc(-c2ncc(NC=O)c(Nc3cc(C4CC4)[nH]n3)n2)s1" ?
**Result** 7.30 to 8.00

**Query** Now try "O=C(O)C(=O)c1ccc(-c2ncc(Cl)c(Nc3cc(C4CC4)[nH]n3)n2)s1" .
**Result** 7.30 to 8.00

**Query** Cool, now "O=S(=O)(NCCO)c1ccc(-c2ncc(Cl)c(Nc3cc(C4CC4)[nH]n3)n2)s1"
**Result** 8.00 to 9.00

**Query** And "CC(C)(C)OC(=O)NCc1ccc(-c2ncc(Cl)c(Nc3cc(C4CC4)n[nH]3)n2)s1" ?
**Result** 6.30 to 7.00

**Query** Also "O=C(O)c1cccc(Nc2ncc(Cl)c(Nc3cc(C4CC4)[nH]n3)n2)c1" ?
**Result** 6.30 to 7.00

**Query** Ok, now "Oc1ccc(-c2ncc(Cl)c(Nc3cc(C4CC4)[nH]n3)n2)cc1"
**Result** 7.30 to 8.00

**Query** Another molecule to check: "NS(=O)(=O)c1ccc(-c2nc(Nc3cc(C4CC4)n[nH]3)c(Cl)c(C3CC3)n2)s1"
**Result** 8.00 to 9.00

**Query** Next molecule: "N#CCC(=O)Nc1cnc(-c2ccc(S(N)(=O)=O)s2)nc1Nc1cc(C2CC2)[nH]n1"
**Result** 6.30 to 7.00

**Query** Also need "C#Cc1cnc(-c2ccc([C@H](O)CC)s2)nc1Nc1cc(C2CC2)[nH]n1" , thanks.
**Result** 8.00 to 9.00

**Query** Next molecule: OC1CCCc2nc(-c3ncc(Cl)c(Nc4cc(C5CC5)[nH]n4)n3)sc21 (stereo not drawn)
**Result** 6.30 to 7.00

**Query** Continue with "CC#Cc1cnc(-c2ccccc2)nc1Nc1cc(C2CC2)n[nH]1"
**Result** < 5.40

**Query** Can you check C#Cc1cnc(-c2ccc(C(O)C(=O)OCC)s2)nc1Nc1cc(C2CC2)[nH]n1 (stereo not drawn) next?
**Result** 7.30 to 8.00

**Query** Try "C#Cc1cnc(-c2ccc(C(=O)C(=O)O)s2)nc1Nc1cc(C2CC2)[nH]n1" next.
**Result** 7.30 to 8.00

**Query** O=S(=O)(NC1CCOC1)c1ccc(-c2ncc(Cl)c(Nc3cc(C4CC4)[nH]n3)n2)s1 (stereo not drawn) , same question.
**Result** 7.30 to 8.00

**Query** Item: "C#Cc1cnc(N2CCCN(C)CC2)nc1Nc1cc(C2CC2)[nH]n1"
**Result** < 5.40
